All values here come from the supplement of paper PMC11061612.

- Test system: SK-MEL-1 (Melanoma)
- ASSAY: Bliss excess, mean over the matrix (fraction); higher = more synergy;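 note: after 72 h of two-drug dosing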
EXPERIMENTAL_ENDPOINT: Bliss excess
Numbers only.

Answered examples (3):
- COMPOUND: "CN(CCO)CC[C@H](CSc1ccccc1)Nc1ccc(S(=O)(=O)NC(=O)c2ccc(N3CCC([C@@H](O)c4ccccc4-c4ccc(Cl)cc4)CC3)cc2)cc1S(=O)(=O)C(F)(F)F [AZD4320] + CS(=O)(=O)CCNCc1ccc(-c2ccc3ncnc(Nc4ccc(OCc5cccc(F)c5)c(Cl)c4)c3c2)o1 [Lapatinib] (first compound max 1 µM, 7x7, partner max 10 µM)"
  RESULT_VALUE: -0.0444
- COMPOUND: "CCN(CCO)CCCOc1ccc2c(Nc3cc(CC(=O)Nc4cccc(F)c4)[nH]n3)ncnc2c1 [AZD2811] + C=CCn1c(=O)c2cnc(Nc3ccc(N4CCN(C)CC4)cc3)nc2n1-c1cccc(C(C)(C)O)n1 [AZD1775] (first compound max 1 µM, partner max 1 µM)"
  RESULT_VALUE: -0.0323
- COMPOUND: "C[C@@H](Oc1cc(-c2cnn(C3CCNCC3)c2)cnc1N)c1c(Cl)ccc(F)c1Cl [Crizotinib] + Cn1cnc2c(F)c(Nc3ccc(Br)cc3Cl)c(C(=O)NOCCO)cc21 [Selumetinib] (first compound max 10 µM, 7x7, partner max 10 µM)"
  RESULT_VALUE: -0.0618

# map each compound to its Bliss excess
1. C[C@@H](Oc1cc(-c2cnn(C3CCNCC3)c2)cnc1N)c1c(Cl)ccc(F)c1Cl [Crizotinib] + CC1=C(C(=CC=C1)Cl)NC(=O)C2=CN=C(S2)NC3=CC(=NC(=N3)C)N4CCN(CC4)CCO [Dasatinib] (first compound max 10 µM, 7x7, partner max 2 µM)
2. CCc1c2c(nc3ccc(O)cc13)-c1cc3c(c(=O)n1C2)COC(=O)[C@]3(O)CC [SN-38] + CN(C)CCCOc1ccc(-c2ccc3ncc4c(c3c2)n(C2CCOCC2)c(=O)n4C)cn1 [AZD0156] (first compound max 0.3 µM, 7x7, partner max 1 µM)
3. Cc1nc(-c2cn3c(n2)-c2ccc(-c4cnn(C(C)(C)C(N)=O)c4)cc2OCC3)n(C(C)C)n1 [Taselisib] + O=C(Nc1ccc2[nH]nc(-c3ccncc3)c2c1)[C@@H]1CCN(CC(=O)N2CCN(c3ccc(-c4ncccn4)cc3)CC2)C1 [SCH772984] (first compound max 10 µM, 7x7, partner max 5 µM)
4. Cc1c2c(nn1C)CSCc1cc(n(C)n1)CSc1cc(c3ccccc3c1)OCCCc1c(C(=O)O)n(C)c3c-2c(Cl)ccc13 [AZD5991] + C[C@@H](Nc1cc(F)cc(F)c1)c1cc(C(=O)N(C)C)cc2c(=O)cc(N3CCOCC3)oc12 [AZD8186] (first compound max 1 µM, 7x7, partner max 3 µM)

1. -0.0554
2. -0.0583
3. 0.0839
4. -0.0232

====

- System: SW48 (Colorectal Carcinoma)
- ASSAY: Bliss excess, mean over the matrix (fraction); higher = more synergy
EXPERIMENTAL_ENDPOINT: Bliss excess
Give bare numbers.

- COMPOUND: "COc1nnc2ccc(N3CCC(c4ccc(OCCN5CCN(C)C(=O)[C@H]5C)cc4)CC3)nn12 [AZD5153] + CCN(CCO)CCCOc1ccc2c(Nc3cc(CC(=O)Nc4cccc(F)c4)[nH]n3)ncnc2c1 [AZD2811] (first compound max 1 µM, 7x7, partner max 1 µM)"
  Bliss excess: -0.0821

Could you tell me Bliss excess for each of these compounds? They are listed below.
1. COc1nnc2ccc(N3CCC(c4ccc(OCCN5CCN(C)C(=O)[C@H]5C)cc4)CC3)nn12 [AZD5153] + Cn1cnc2c(F)c(Nc3ccc(Br)cc3Cl)c(C(=O)NOCCO)cc21 [Selumetinib] (first compound max 1 µM, 7x7, partner max 10 µM)
2. Cc1cc2ncnn2cc1Nc1ncc2c(n1)n(C1CCOCC1)c(=O)n2C [AZD7648] + CN(C)CCCOc1ccc(-c2ccc3ncc4c(c3c2)n(C2CCOCC2)c(=O)n4C)cn1 [AZD0156] (first compound max 10 µM, 7x7, partner max 1 µM)

1. 0.0619
2. -0.0183

Please give Bliss excess for each item listed below.
1. CN(CCO)CC[C@H](CSc1ccccc1)Nc1ccc(S(=O)(=O)NC(=O)c2ccc(N3CCC([C@@H](O)c4ccccc4-c4ccc(Cl)cc4)CC3)cc2)cc1S(=O)(=O)C(F)(F)F [AZD4320] + CS(=O)(=O)CCNCc1ccc(-c2ccc3ncnc(Nc4ccc(OCc5cccc(F)c5)c(Cl)c4)c3c2)o1 [Lapatinib] (first compound max 1 µM, 7x7, partner max 10 µM)
2. CCN(CCO)CCCOc1ccc2c(Nc3cc(CC(=O)Nc4cccc(F)c4)[nH]n3)ncnc2c1 [AZD2811] + C=CCn1c(=O)c2cnc(Nc3ccc(N4CCN(C)CC4)cc3)nc2n1-c1cccc(C(C)(C)O)n1 [AZD1775] (first compound max 1 µM, partner max 1 µM)
3. CN(CCO)CC[C@H](CSc1ccccc1)Nc1ccc(S(=O)(=O)NC(=O)c2ccc(N3CCC([C@@H](O)c4ccccc4-c4ccc(Cl)cc4)CC3)cc2)cc1S(=O)(=O)C(F)(F)F [AZD4320] + C1CN(CCC1(C(=O)N[C@@H](CCO)C2=CC=C(C=C2)Cl)N)C3=NC=NC4=C3C=CN4 [Capivasertib] (first compound max 1 µM, 7x7, partner max 3 µM)

[0.14, -0.013, 0.0148]

Looking up Cc1cc2ncnn2cc1Nc1ncc2c(n1)n(C1CCOCC1)c(=O)n2C [AZD7648] + COc1cc([C@@H]2c3cc4c(cc3[C@@H](O[C@@H]3O[C@@H]5CO[C@@H](C)O[C@H]5[C@H](O)[C@H]3O)[C@H]3COC(=O)[C@H]23)OCO4)cc(OC)c1O [Etoposide] (first compound max 10 µM, 7x7, partner max 10 µM) , I found its Bliss excess recorded as 0.0487
